Target: T1, TNFR1 (Homo sapiens, UniProt P19438)
T1 chain: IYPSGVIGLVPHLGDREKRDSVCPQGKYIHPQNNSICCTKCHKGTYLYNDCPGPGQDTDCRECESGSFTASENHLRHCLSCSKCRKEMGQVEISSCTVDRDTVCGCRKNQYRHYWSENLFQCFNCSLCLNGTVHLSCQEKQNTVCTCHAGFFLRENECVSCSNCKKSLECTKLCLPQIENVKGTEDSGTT
Experiment: yeast display SC50
attribute_measured: apparent Kd (screen) (pM)
Field: numeric (pM). Do not append units.

>  <binder>
A20S (designed binder) SMEEEVEKAAKEYEKKKKESIEKHLEKLKAKDKEAAERFLKELEEAAKEYAKDEAKTMSEEEAKRRAKKYKEKVLLSELSEEEQKEIKEAEEKLVRTILKYVEEAAK

>  <apparent Kd (screen) / pM>
446

$$$$

# lookup: apparent Kd (screen) of A35Q (designed binder) SMEEEVEKAAKEYEKKKKEAIEKHLEKLKAKDKEQAERFLKELEEAAKEYAKDEAKTMSEEEAKRRAKKYKEKVLLSELSEEEQKEIKEAEEKLVRTILKYVEEAAK
869

These measurements were taken from paper PMC12416549.
